Where these numbers come from: patent US12209079B2

molecular target: TDO in A172 cells (Homo sapiens, UniProt P48775); construct: endogenous in cells; host or cells: A172 cells; assay: TDO cell-based assay, kynurenine production in A172 cells; conditions: A 172; final concentration of the compound 10 μM; rate relative to culture without compound
Sequence (P48775 whole entry): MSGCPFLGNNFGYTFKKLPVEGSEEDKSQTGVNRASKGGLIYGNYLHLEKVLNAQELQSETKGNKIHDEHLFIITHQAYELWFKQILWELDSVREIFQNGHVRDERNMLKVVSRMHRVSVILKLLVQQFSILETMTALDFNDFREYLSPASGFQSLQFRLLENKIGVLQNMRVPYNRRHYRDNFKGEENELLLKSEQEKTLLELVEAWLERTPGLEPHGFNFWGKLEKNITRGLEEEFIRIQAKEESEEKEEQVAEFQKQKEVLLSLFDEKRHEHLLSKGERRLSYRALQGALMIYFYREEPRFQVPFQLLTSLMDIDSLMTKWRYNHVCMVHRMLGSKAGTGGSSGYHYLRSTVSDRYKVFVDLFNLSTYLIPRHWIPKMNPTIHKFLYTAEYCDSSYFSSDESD
Structures can show the parent of a compound that is named as a salt.
Rule: remaining activity at 10 µM below 90% gives yes, anything at or above gives no.

Some solved cases for reference:
compound: N=C(N)SCc1ccccc1CC(=O)NCCc1ccc(Cl)c(Cl)c1 [Compound 70, hydrobromide]
cat: no
//
compound: COc1ccc(CCN2CN=C(SCc3ccc(Br)cc3CSC3=NCN(CCc4ccc(OC)cc4)CN3)NC2)cc1 [Compound 148]
cat: yes
//
compound: COc1cccc(CNC(=O)c2ccc(Br)cc2CSC(=N)N)c1 [Compound 105, hydrobromide]
cat: yes
//
compound: N#Cc1ccc(CNC(=O)c2ncccc2CSC(=N)N)cc1 [Compound 99, hydrobromide]
cat: no
//
compound: COC(=O)c1ccccc1CSC(=N)N [Compound 55, hydrochloride]
cat: no

Incoming: Regarding N=C(N)SCc1cc(Br)ccc1C(=O)NCc1ccc(F)cc1 [Compound 86, hydrobromide] , kindly confirm whether its remaining activity at 10 µM is beneath 90%.
Outgoing: yes

Incoming: Please indicate whether the reported remaining activity at 10 µM of N=C(N)SCc1ccccc1CC(=O)NCC1CCCCC1 [Compound 65, hydrobromide] is strictly below 90%.
Outgoing: no

* * *

Provide the reported remaining activity at 10 µM of each item.
target: TDO in A172 cells (Homo sapiens, UniProt P48775); construct: endogenous in cells; host or cells: A172 cells; test: TDO cell-based assay, kynurenine production in A172 cells; conditions: A 172; final concentration of the compound 10 μM; rate relative to culture without compound
Counter-ions that a name gives are not always drawn.
One number for each entry, in %.

# example entries with known answers
molecule: COc1ccc(/N=C(\N)SCc2ccc(F)cc2CS/C(N)=N/c2ccc(OC)cc2)cc1 [Compound 128, dihydrobromide]
assay.system: TDO in A172 cells (Homo sapiens, UniProt P48775)
remaining activity at 10 µM [%]: 8
//
molecule: CNC(=O)c1ncccc1CSC(=N)N [Compound 98, hydrobromide]
assay.system: TDO in A172 cells (Homo sapiens, UniProt P48775)
remaining activity at 10 µM [%]: 133
//
molecule: Br.Br.N=C(N)SCc1ccc(Br)cc1CSC(=N)N [Compound 10, dihydrobromide]
assay.system: TDO in A172 cells (Homo sapiens, UniProt P48775)
remaining activity at 10 µM [%]: 2
//
molecule: FC(F)(F)c1cccc(CCN2CN=C(SCc3ccc(Br)cc3CSC3=NCN(CCc4cccc(C(F)(F)F)c4)CN3)NC2)c1
assay.system: TDO in A172 cells (Homo sapiens, UniProt P48775)
remaining activity at 10 µM [%]: 17
//
molecule: CNC(=O)c1ccc(C#N)cc1CS/C(N)=N/c1ccc(Br)cc1 [Compound 81, hydrobromide]
assay.system: TDO in A172 cells (Homo sapiens, UniProt P48775)
remaining activity at 10 µM [%]: 89

Respectfully, I request remaining activity at 10 µM for each entry included below.
1. Cc1ccc(CNC(=O)c2ccc(Br)cc2CSC(=N)N)cc1 [Compound 90, hydrobromide]
2. c1ccc(CCN2CN=C(SCc3ccccc3CSC3=NCN(CCc4ccccc4)CN3)NC2)cc1
3. N#Cc1ccc(CNC(=O)c2ncccc2CS/C(N)=N/c2ccc(F)c(Cl)c2)cc1 [Compound 101, hydrobromide]
4. Clc1ccc(CN2CN=C(SCc3cc(Cl)c(Cl)cc3CSC3=NCN(Cc4ccc(Cl)c(Cl)c4)CN3)NC2)cc1Cl
5. FC(F)(F)c1ccc(CSC2=NCN(CCc3ccccc3Cl)CN2)c(CSC2=NCN(CCc3ccccc3Cl)CN2)c1
6. Cl.Cl.c1ccc(CCN2CN=C(SCc3cscc3CSC3=NCN(CCc4ccccc4)CN3)NC2)cc1 [Compound 33, dihydrochloride]
7. N#Cc1ccc(CNC(=O)c2cc(Br)ccc2CS/C(N)=N/c2ccc(Br)cc2)cc1 [Compound 119, hydrobromide]

Outgoing:
1: 51; 2: 0; 3: 70; 4: 2; 5: 71; 6: 4; 7: 12

List remaining activity at 10 µM for every entry below, keeping the order given.
1. Brc1cccc(CCN2CN=C(SCc3ccccc3CSC3=NCN(CCc4cccc(Br)c4)CN3)NC2)c1
2. Br.Br.N/C(=N\c1ccc(F)cc1F)SCc1ccccc1CS/C(N)=N/c1ccc(F)cc1F
3. Clc1ccccc1CCN1CN=C(SCc2ccc(Br)cc2CSC2=NCN(CCc3ccccc3Cl)CN2)NC1
4. N=C(N)SCc1ccccc1CC(=O)NCC1CC1 [Compound 71, hydrobromide]
5. N=C(N)[Se]Cc1cc(Br)ccc1C(=O)NCC1CC1 [Compound 107, hydrobromide]
6. c1ccc(CN2CN=C(SCc3ccccc3CSC3=NCN(Cc4ccccc4)CN3)NC2)cc1
7. Br.Br.N=C(N)SCc1ccc(F)cc1CSC(=N)N [Compound 2, dihydrobromide]

Outgoing:
[1, -7, 17, 77, 12, 4, 7]

For every item in the list below, what is its measured remaining activity at 10 µM?
1. FC(F)(F)c1ccc(CN2CN=C(SCc3ccccc3CSC3=NCN(Cc4ccc(C(F)(F)F)cc4)CN3)NC2)cc1
2. N=C(N)SCc1ccc(Br)cc1C(=O)NCc1ccc(Br)cc1 [Compound 117, hydrobromide]
3. N=C(N)SCc1ccccc1CC(=O)NCCc1ccc(Cl)cc1 [Compound 68, hydrobromide]
4. Fc1ccc(CSC2=NCN(CC3CCCCC3)CN2)c(CSC2=NCN(CC3CCCCC3)CN2)c1
5. N=C(N)SCc1cccc(F)c1CSC(=N)N [Compound 13, dihydrobromide]
6. N#Cc1ccc(CNC(=O)c2ccc(Br)cc2CS/C(N)=N/c2ccc(Br)cc2)cc1 [Compound 87, hydrobromide]

Outgoing:
1: 2; 2: 31; 3: 81; 4: 11; 5: 42; 6: 13

* * *

target: rhTDO (recombinant human TDO) (Homo sapiens, UniProt P48775); test: Enzyme assay using rhTDO (rate of kynurenine production); assay type: biochemical; settings: 2 h; final concentration of the compound 10 μM; rate relative to reaction without compound; read-out: rhTDO-mediated kynurenine production
Sequence (P48775 whole entry): as the sequence (P48775 whole entry) above
Where a name gives a salt, the structure may show the parent alone.
Please use fulfilled for remaining activity at 10 µM under 7% and not fulfilled for everything else, ties included.

Use the examples below as a reference point.
molecule: CNC(=O)c1cccnc1CSC(=N)N [Compound 100, hydrobromide]
assay.system: rhTDO (recombinant human TDO) (Homo sapiens, UniProt P48775)
cat: not fulfilled
--
molecule: NC(=O)SCc1ccccc1CS/C(N)=N/c1ccc(F)c(Cl)c1 [Compound 59, hydrobromide]
assay.system: rhTDO (recombinant human TDO) (Homo sapiens, UniProt P48775)
cat: fulfilled

Incoming: remaining activity at 10 µM under 7%? Item: c1cnc(SCc2ccccc2CSc2ncccn2)nc1
Outgoing: not fulfilled

Incoming: Consider N/C(=N\c1ccc(Cl)cc1)SCc1cc(Cl)c(Cl)cc1CS/C(N)=N/c1ccc(Cl)cc1 [Compound 123, dihydrobromide] . Does its remaining activity at 10 µM lie strictly below 7%?
Outgoing: not fulfilled

Incoming: Does this molecule meet the criterion remaining activity at 10 µM < 7%? Clc1cc(CSC2=NCN(CCC3CCCCC3)CN2)c(CSC2=NCN(CCC3CCCCC3)CN2)cc1Cl
Outgoing: fulfilled

* * *

target: IDO in A431 cells (Homo sapiens, UniProt P14902); construct: endogenous in cells; host or cells: A431 cells, IFN-γ stimulated; experiment: IDO cell-based assay, kynurenine production in IFN-γ stimulated A431 cells; settings: A-431, 24 h; final concentration of the compound 10 μM; rate relative to culture without compound
Sequence (P14902 whole entry): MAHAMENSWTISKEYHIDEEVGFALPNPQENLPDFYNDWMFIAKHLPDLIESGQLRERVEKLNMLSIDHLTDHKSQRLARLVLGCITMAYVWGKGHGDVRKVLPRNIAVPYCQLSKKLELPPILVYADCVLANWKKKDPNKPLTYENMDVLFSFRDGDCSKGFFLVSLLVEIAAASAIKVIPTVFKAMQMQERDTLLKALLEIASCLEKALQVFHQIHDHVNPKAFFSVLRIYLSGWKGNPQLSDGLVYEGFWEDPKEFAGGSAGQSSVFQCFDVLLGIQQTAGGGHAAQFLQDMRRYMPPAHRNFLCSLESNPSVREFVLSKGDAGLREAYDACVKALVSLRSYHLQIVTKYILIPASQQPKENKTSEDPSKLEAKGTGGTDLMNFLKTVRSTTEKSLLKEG
Structures can show the parent of a compound that is named as a salt.
value.type: remaining activity at 10 µM (%)
Give bare numbers, in %.

Give remaining activity at 10 µM for each listed item.
1. Br.N#Cc1ccc(CNC(=O)c2cc(Br)ccc2CSC(=N)N)cc1 [Compound 103, hydrobromide]
2. COc1cccc(CNC(=O)c2ccc(Br)cc2CSC(=N)N)c1 [Compound 105, hydrobromide]
3. N#Cc1ccc(CNC(=O)c2ncccc2CSC(=N)N)cc1 [Compound 99, hydrobromide]

Outgoing:
[3, 107, 102]
